Molecular target: T1, BMP-5 (UniProt P22003 317-454, limits assumed)
T1 construct: also called bone morphogenetic protein 5
T1 sequence (looked up): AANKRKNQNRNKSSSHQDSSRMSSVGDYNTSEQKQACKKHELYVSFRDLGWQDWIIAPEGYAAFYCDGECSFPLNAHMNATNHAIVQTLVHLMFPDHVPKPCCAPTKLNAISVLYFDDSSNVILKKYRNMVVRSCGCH
Test: plate assay: biotinylated peptide on streptavidin plate, growth factor titrated 0.01-100 nM, antibody/AP detection
pEC50: −log10 of the molar value. Where no end group is shown, it is not given here. [ ]: non-standard residue; d: D form.
quantity-measured: pEC50

[[record]]
binder = "[code s][code s]GPREIWDSLVGVVNPGW[code s][code r] (also: biotinylated, site not given here) [SEQ ID NO 1]"
result = "> 7.00"


I have 2 binders here; please give me pEC50 for each one.
1. [code s][code s]VAEWALRSWEGMRVGEA[code s][code r] (also: biotinylated, site not given here) [SEQ ID NO 3]
2. SSGGVGGWALFETLRGKEVSR (not fully specified (residues 1, 2, 20, 21); printed as ssGGVGGWALFETLRGKEVsr; also: biotinylated, site not given here) [SEQ ID NO 2]

["> 7.00", "> 7.00"]
